Source of measurements: patent US10752640B2

Catalogue of Kd values
# TARGET SYSTEM: BRD4(2), second bromodomain of BRD4 (Homo sapiens)
# Construct: BRD4(2) for the second bromodomain of BRD4; purchased DiscoveRx Corporation (assay service); host or cells: T7 phage grown in an E. coli host derived from the BL21 strain
# ASSAY NOTES: Bromoscan assay BRD4(2) (DiscoveRx)
# Format: binding
# SETTINGS: read-out: BromoScan BRD4_2 Kd/nM
Respond with the bare value in nM.

compound=Cc1cc(O)nc2ccc(NC(=O)c3cc(CN4CCN(C)CC4)ccc3N3CCCC3)cc12 experimental_result=330
compound="Cc1cc(O)nc2ccc(NC(=O)c3cc(C(C)O)ncc3N3CCCC3)cc12 (stereo not drawn)" experimental_result=79

Consider now this further compound.
q: Looking for the measured Kd of `Cc1cc2nc(O)cc(C)c2cc1NC(=O)c1cc(S(=O)(=O)N(C)C)ccc1N1CCOCC1` , can you help?
a: 5600

----------
Catalogue of IC50 values
# TARGET SYSTEM: BRD4 protein (Homo sapiens, UniProt O60885)
# ASSAY NOTES: FRET assay, half maximal inhibitory concentration (IC50)
# Format: binding
# SETTINGS: BRD4 protein 50 nM, Biotin-H4KAc4 peptide 12.5 nM; List of Classification

Use the examples below as a reference point.
compound="Cc1cc(O)nc2ccc(NC(=O)c3cc(-c4cnoc4)cnc3N3CCOCC3)cc12 [Compound-176]" assay_metric=IC50 experimental_result="< 200 nM"
compound="Cc1cc(O)nc2ccc(NS(=O)(=O)c3cc(N)ccc3N3CCOCC3)cc12 [Compound-77]" assay_metric=IC50 experimental_result="> 10000 nM"
compound="Cc1cc(O)nc2ccc(NC(=O)c3cccnc3N3CCC(F)(F)CC3)cc12 [Compound-146]" assay_metric=IC50 experimental_result="< 200 nM"
compound="Cc1cc2nc(O)cc(C)c2cc1NC(=O)c1cc(CN2CCOCC2)ccc1N1CCCC1 [Compound-29]" assay_metric=IC50 experimental_result="< 200 nM"
compound="Cc1cc(O)nc2ccc(NC(=O)c3cc(C#N)ncc3N3CCOCC3)cc12 [Compound-116]" assay_metric=IC50 experimental_result="< 200 nM"

q: Looking for the measured IC50 of Cc1cc(O)nc2ccc(NC(=O)c3cc(C(F)(F)F)cnc3N3CCOCC3)cc12 [Compound-139] , can you help?
a: < 200 nM

q: Looking for the measured IC50 of Cc1cc2nc(O)cc(C)c2cc1NC(=O)c1cc(-c2cnn(C)c2)ccc1N1CCOCC1 [Compound-154] , can you help?
a: < 200 nM

q: Looking for the measured IC50 of Cc1cc(O)nc2ccc(NC(=O)c3cc(C(C)O)ccc3N3CCCC3)cc12 (centres unmarked) [Compound-46] , can you help?
a: < 200 nM

q: Looking for the measured IC50 of Cc1cc(O)nc2ccc(NC(=O)c3cc4c(ccn4CC(N)=O)cc3N3CCCC3)cc12 [Compound-86] , can you help?
a: < 200 nM

q: Looking for the measured IC50 of COc1cc(NC(=O)c2cc(S(=O)(=O)N(C)C)ccc2N2CCCC2)cc2c(C)cc(O)nc12 [Compound-108] , can you help?
a: < 200 nM

q: Looking for the measured IC50 of Cc1cc(O)nc2ccc(NC(=O)c3cc(N)ccc3-n3cccn3)cc12 [Compound-105] , can you help?
a: 500 to 1000 nM

q: Looking for the measured IC50 of O=C(Nc1ccc2nc(O)cc(Cl)c2c1)c1cc(CN2CCOCC2)cnc1N1CCOCC1 [Compound-91] , can you help?
a: < 200 nM
